Some compounds, each annotated with its measured log10 IC50.
biological target: GRK2 (Homo sapiens, UniProt P25098); construct: purchased SignalChem A14-10G; assay: ADPGlo GRK2 Inhibition Assay (Example 8); assay type: biochemical; conditions: ADPGlo GRK2 enzyme assay; read-out: A: Enzymatic GRK2: IC50 (nM) (Example 8)
Sequence (P25098 whole entry): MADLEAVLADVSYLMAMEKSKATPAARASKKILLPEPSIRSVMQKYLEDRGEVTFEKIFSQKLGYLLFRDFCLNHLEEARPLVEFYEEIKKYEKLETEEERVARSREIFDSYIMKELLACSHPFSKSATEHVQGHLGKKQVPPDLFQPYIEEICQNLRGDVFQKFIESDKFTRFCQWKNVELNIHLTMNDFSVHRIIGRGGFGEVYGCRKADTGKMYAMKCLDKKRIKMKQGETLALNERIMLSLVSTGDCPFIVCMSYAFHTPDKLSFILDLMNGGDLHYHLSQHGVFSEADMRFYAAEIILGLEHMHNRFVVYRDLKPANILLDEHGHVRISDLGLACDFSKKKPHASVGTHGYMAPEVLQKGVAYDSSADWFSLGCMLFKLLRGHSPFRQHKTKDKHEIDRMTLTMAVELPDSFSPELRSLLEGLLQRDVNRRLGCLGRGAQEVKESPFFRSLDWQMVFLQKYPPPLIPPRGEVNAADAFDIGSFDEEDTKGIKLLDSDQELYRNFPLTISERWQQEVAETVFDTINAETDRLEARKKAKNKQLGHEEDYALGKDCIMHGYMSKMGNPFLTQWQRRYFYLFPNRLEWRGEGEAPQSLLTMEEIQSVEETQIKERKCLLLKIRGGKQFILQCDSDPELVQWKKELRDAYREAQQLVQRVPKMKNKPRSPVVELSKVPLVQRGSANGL
Property measured: log10 IC50 (log10 of the value in nM)

- Cn1c(CNc2cccc(C(=O)NC3CCn4nccc4C3)c2)nnc1-c1ccncn1 (stereo not shown): 2.12
- Cn1c(CNc2cccc(C(=O)NCc3ccccc3S(=O)(=O)NC(C)(C)C)c2)nnc1-c1ccncn1: 1.73
- Cn1c(CNc2cccc(C(=O)NC(C)(CO)c3ccccn3)c2)nnc1-c1ccncn1 (stereo not shown): 2.71
- Cc1cc(CO)cc(C)c1CNC(=O)c1cccc(NCc2nnc(-c3ccncn3)n2C)c1: 1.03
- CCCn1c(CNc2cccc(C(=O)N[C@H](C)c3cccc(OC)c3)c2)nnc1-c1ccncn1: 1.60
- COc1ncc(Br)cc1CNC(=O)c1cccc(NCc2nnc(-c3ccncn3)n2C)c1: 1.33
- C[C@@H](NC(=O)c1cccc(NCc2nnc(-c3ccncn3)n2C)c1)c1ncccc1Cl [drawing 845]: 1.08
- CCc1cccnc1CNC(=O)c1cccc(NCc2nnc(-c3ccncn3)n2C)c1: 1.35
- Cn1c(CNc2cccc(C(=O)NC(CCO)c3ccccc3F)c2)nnc1-c1ccncn1 (stereo not shown): 1.55
- Cn1c(CNc2cc(C(=O)N[C@@H]3COc4cc(F)ccc43)ccn2)nnc1-c1ccncn1: 1.57
- COc1ccc([C@H](C)NC(=O)c2cccc(NCc3nnc(-c4ccncn4)n3C)c2)cc1: 2.77
- Cn1c(CNc2cccc(C(=O)N[C@@H]3COCc4ccccc43)c2)nnc1-c1ccncn1 [drawing 851]: 1.31
- COc1cccc([C@@H](C)NC(=O)c2cccc(NCc3nnc(-c4ccncc4F)n3C)c2)c1: 2.26
- Cn1c(CNc2cccc(C(=O)NCc3ccccc3-n3ccnc3)c2)nnc1-c1ccncn1: 1.48
- Cn1c(CNc2cccc(C(=O)N[C@@H]3CCOc4c(Cl)cccc43)c2)nnc1-c1ccncn1: 0.91
- CN1CCN(Cc2ccccc2CNC(=O)c2cccc(NCc3nnc(-c4ccncn4)n3C)c2)CC1: 2.20
- CC(C)C(NC(=O)c1cccc(NCc2nnc(-c3ccncn3)n2C)c1)c1ccccn1 (stereo not shown): 1.72
- Cn1c(CNc2cccc(C(=O)NCc3cnn4c3CCCC4)c2)nnc1-c1ccncn1: 1.85
- CCN1CCN(Cc2ccccc2CNC(=O)c2cccc(NCc3nnc(-c4ccncn4)n3C)c2)CC1: 2.43
- Cn1c(CNc2cccc(C(=O)NC3CCS(=O)(=O)c4ccc(F)cc43)c2)nnc1-c1ccncn1 (stereo not shown): 1.82
- CN1CCN(S(=O)(=O)c2ccccc2CNC(=O)c2cccc(NCc3nnc(-c4ccncn4)n3C)c2)CC1: 2.54
- CN1CCN(c2ncccc2CNC(=O)c2cccc(NCc3nnc(-c4ccncn4)n3C)c2)CC1: 2.46
- Cn1c(CNc2cccc(C(=O)NCc3ncccc3Cl)c2)nnc1-c1ccncn1: 1.68
- COc1ccc(CNC(=O)c2cccc(NCc3nnc(-c4ccncn4)n3C)c2)cc1F: 1.48
- Cc1ccccc1[C@H](C#N)NC(=O)c1cccc(NCc2nnc(-c3ccncn3)n2C)c1: 0.67
- Cn1c(CNc2cccc(C(=O)NCc3ccncc3Br)c2)nnc1-c1ccncn1: 1.14
- Cc1ccc(C#N)cc1CNC(=O)c1cccc(NCc2nnc(-c3ccncn3)n2CCO)c1: 0.51
- Cn1c(CNc2cccc(C(=O)NCc3ccccc3OCCN3CCOCC3)c2)nnc1-c1ccncn1: 2.16
- Cn1c(CNc2cccc(C(=O)N[C@H](CCO)c3ccccc3)c2)nnc1-c1ccncc1F: 1.26
- CCCCCOc1ccc2c(c1)[C@@H](NC(=O)c1cccc(NCc3nnc(-c4ccncn4)n3C)c1)CO2: 0.92
- Cn1c(CNc2cccc(C(=O)NCc3ccccc3S(=O)(=O)N3CCCC3)c2)nnc1-c1ccncn1: 1.43
